Test system: Haemophilus influenzae
assay overview: Antimicrobial activity against beta-lactamase-negative Haemophilus influenzae by broth microdilution method
Format: functional
Documented MIC50 across a set of compounds
measured property: MIC50 (µg/mL)

>  <compound>
CCO/N=C(\C(=O)N[C@@H]1C(=O)N2C(C(=O)[O-])=C(Sc3nc(-c4cc[n+](C)cc4)cs3)CS[C@H]12)c1nsc(NP(=O)(O)O)n1

>  <observed>
0.015

$$$$
>  <compound>
CO/N=C(\C(=O)N[C@@H]1C(=O)N2C(C(=O)O)=C(CSc3nc(=O)c(O)nn3C)CS[C@H]12)c1csc(N)n1

>  <observed>
0.015

$$$$
>  <compound>
C[C@H]1COc2c(N3CCN(C)CC3)c(F)cc3c(=O)c(C(=O)O)cn1c23.C[C@H]1COc2c(N3CCN(C)CC3)c(F)cc3c(=O)c(C(=O)O)cn1c23.O

>  <observed>
0.03

$$$$
>  <compound>
C[C@@H](O)[C@H]1C(=O)N2C(C(=O)O)=C(SCCNC=N)C[C@H]12 [IMIPENEM ANHYDROUS]

>  <observed>
0.5

$$$$
